assayProtocol: basal 3T3-L1 adipocyte mitochondrial potential changes, profiling panel, cell-based, JC-1 fluorescence, 3T3-L1 adipocytes, 24 h, 100 nL compound (AID 1168); also: test concentration not given here
conditionSummary: JC-1 mitochondrial fluorescence, higher = more signal, called active from +8 up or from −8 down

molecularString | z-score
C[N+](C)(C)CCCCNC(=O)[C@@H]1C[C@@H]2C(=O)N3CCC[C@H]3C(=O)N2[C@@H]1c1cccc(OCCO)c1 | 0.971
CCOC(=O)[C@H]1C/C=C/C[C@H](C(=O)OCC)C(=O)O[C@H]2[C@@H](OC)O[C@H](CO)[C@@H](OC(=O)Nc3ccc(Br)cc3)[C@@H]2OC1=O | 2.89
COCCOC(=O)N1C(=O)[C@@]2(c3cc(C#CCNC(N)=O)ccc31)[C@H](C(=O)N1CCCCCCC1)[C@H]1C(=O)O[C@H](c3ccccc3)[C@H](c3ccccc3)N1[C@@H]2c1ccccc1OCCO | 0.315
O=C1c2ccccc2[C@](Cc2ccccc2I)(C(=O)NCc2ccccc2)[C@H](c2ccc(CO)cc2)N1Cc1ccccc1C(F)(F)F | 0.789
CCCC=C(CCC)[C@@H](NS(=O)(=O)c1cccc(C(F)(F)F)c1)c1ccc(C(=O)OC)cc1 | -0.413
CCOC(=O)C[C@H]1[C@H](OC(=O)c2ccccc2-c2ccccc2)[C@@H](NC(=O)C2CCCCC2)c2cc(OCCCO)ccc2N1C(=O)c1ccccc1 | 0.75

###

assayProtocol: binders of probe aFST on microarray, primary screen, stem cell growth factor project, biochemical, small-molecule microarray, fluorescence 635/667 (AID 1086);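 also: score merges 667 nm fluorescence with signal-to-noise of each printed compound spot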
conditionSummary: higher = more signal

molecularString | composite z-score
CC(=O)Nc1ccc([C@H]2[C@H](C)CC[C@H]3C(=O)N4[C@@H](CC[C@@H](C)[C@@H]4c4ccc(NC(C)=O)cc4)C(=O)N32)cc1 | 0.0863
COCCOC(=O)N1C(=O)[C@@]2(c3cc(C#CCNC(N)=O)ccc31)[C@H](c1ccc(OCCO)cc1)N1[C@H](c3ccccc3)[C@H](c3ccccc3)OC(=O)[C@H]1[C@@H]2C(=O)N1CCCCCCC1 | 1.46
COc1cc(Cc2cc3c(c(CCc4ccccc4)n2)[Si](C(C)C)(C(C)C)OC3)cc(OC)c1OC | 0.337

###

Entries and their measured z-score follow.
assayProtocol: adipocyte viability effects, profiling panel, cell-based, 3T3-L1 adipocytes, calcein-AM fluorescence, 48 h, basal (AID 1163); also: test concentration not given here
conditionSummary: 3T3-L1 adipocytes viability, higher = more signal
attributeMeasured: z-score

molecule | attributeMeasured | reported
C=CCC(OC(C)=O)[C@@H]1[C@@H](N(Cc2cc3ccccc3o2)C(=O)Cc2ccc(F)cc2)c2cc(OCCCO)ccc2N1C(=O)c1ccc(-c2ccccc2)cc1 (stereo partly drawn) | z-score | 0.0893
C#C[C@H](O[Si](C#Cc1ccccc1)(C(C)C)C(C)C)c1ccccc1 | z-score | -0.653
CC(=O)NCCCC[C@@H]1NC(=O)[C@@H]2C[C@H](C(=O)NCc3ccc(F)cc3)[C@H](c3cccc(OCCO)c3)N2C1=O | z-score | 0.0222
COCC(=C=CC[C@H](O)c1ccc(OCCO)cc1)C[C@H](O)c1ccccn1 | z-score | -0.518
CC(C)CNC(=O)[C@@]1(C)c2ccccc2C(=O)N(Cc2ccc(OC(F)(F)F)cc2)[C@H]1c1ccc(CO)cc1 | z-score | 1.68
CCN1C(C)=C(C(=O)OC)[C@@H](c2ccccc2)N2C(=O)[C@@]3(C(=O)OC)O[C@@]12[C@@H]1C(=O)N(c2ccccc2)C(=O)[C@@H]13 | z-score | 1.67
N#Cc1ccc(NN2C(C(O)c3ccc(I)cc3)C=CC3C(=O)N(c4ccccc4)C(=O)C32)cc1 (stereo not drawn) | z-score | -0.392
N#Cc1ccc(NN2C(C(O)CCc3ccccc3)C=CC3C(=O)N(c4ccccc4)C(=O)C32)cc1 (stereo not drawn) | z-score | -0.191

###

Entries and their measured composite z-score follow.
assayedTarget: Concanavalin-A (Canavalia ensiformis) (UniProt P02866)
Sequence (P02866 whole entry, looked up): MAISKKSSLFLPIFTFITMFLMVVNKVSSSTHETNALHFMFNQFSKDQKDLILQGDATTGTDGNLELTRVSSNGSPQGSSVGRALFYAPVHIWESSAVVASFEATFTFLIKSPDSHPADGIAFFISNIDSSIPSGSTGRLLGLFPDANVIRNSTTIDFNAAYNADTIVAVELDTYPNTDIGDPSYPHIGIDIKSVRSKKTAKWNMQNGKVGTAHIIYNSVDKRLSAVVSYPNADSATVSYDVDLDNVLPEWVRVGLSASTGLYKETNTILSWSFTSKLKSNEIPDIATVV
assayProtocol: ConA small-molecule binders, primary screen, artefact control for SMM control protein annotation, biochemical, small-molecule microarray, Alexa647 label, 635 nm (AID 1127);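 also: z combines 667 nm emission intensity with signal-to-noise across three replicate slides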
conditionSummary: ConA-A647 binding fluorescence, higher = more signal

molecule | assayedTarget | composite z-score
COC(=O)C[C@H]1O[C@]2(C(=O)N(Cc3ccccc3)c3ccc(I)cc32)[C@@H](C)[C@@H]1[Si](C)(C)c1ccc(OC)cc1 | Concanavalin-A (Canavalia ensiformis) (UniProt P02866) | -0.0276
CO[C@H]1COC(=O)CC=C[C@H](C)[C@@H](OC)COC(=O)CC=C[C@@H]1C | Concanavalin-A (Canavalia ensiformis) (UniProt P02866) | -1.25
NC(=O)[C@H]1[C@@H]2C(=O)O[C@@H](c3ccccc3)[C@@H](c3ccccc3)N2[C@@H](c2ccc(O)cc2)[C@]12C(=O)Nc1ccc(C#CCCO)cc12 | Concanavalin-A (Canavalia ensiformis) (UniProt P02866) | -1.78
[N-]=[N+]=NCc1ccccc1C[C@@]1(C(=O)N2CCOCC2)N=C(c2ccc(OCCCO)cc2)O[C@@H]1c1ccccc1N=[N+]=[N-] | Concanavalin-A (Canavalia ensiformis) (UniProt P02866) | 1.18
N#Cc1ccc(NN2C(C(O)c3ccc(I)cc3)C=CC3C(=O)N(c4ccccc4)C(=O)C32)cc1 (centres undefined) | Concanavalin-A (Canavalia ensiformis) (UniProt P02866) | 1.12
CO[C@H]1COC(=O)[C@H](C)NC(=O)CC=C[C@@H](C)[C@H](NS(=O)(=O)c2ccc(C)cc2)COC(=O)CC=C[C@@H]1C | Concanavalin-A (Canavalia ensiformis) (UniProt P02866) | -0.206
O=C1C2C=CC(C(O)Cc3ccccc3)N(Nc3ccc([N+](=O)[O-])cc3)C2C(=O)N1c1ccccc1 (centres undefined) | Concanavalin-A (Canavalia ensiformis) (UniProt P02866) | 0.185
Cc1ccc(S[C@]2(C(=O)NC(C)C)CC(=O)N(C3Cc4ccccc4C3)[C@@H]2c2ccc(CO)cc2)cc1 | Concanavalin-A (Canavalia ensiformis) (UniProt P02866) | 1.16
COc1cc2c(cc1OC)CN(C(=O)[C@H]1[C@@H]3C(=O)O[C@@H](c4ccccc4)[C@@H](c4ccccc4)N3[C@@H](c3ccccc3OCCO)[C@]13C(=O)Nc1ccc(C#CC4(O)CCCCCC4)cc13)CC2 | Concanavalin-A (Canavalia ensiformis) (UniProt P02866) | 1.13

###

assayProtocol: small-molecule microarray binders of probe aLefty2, primary screen, biochemical, biotinylated probe, 635/667 nm fluorescence (AID 1094);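 also: score merges spot fluorescence near 667 nm with spot signal-to-noise ratio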
conditionSummary: higher = more signal

molecule | composite z-score
Cc1ccc(S(=O)(=O)N[C@H]2COC(=O)CC=C[C@H](C)COC(=O)N[C@@H](C)C(=O)CC=C[C@@H]2C)cc1 | -0.215
C=C(CCCC)C(=O)CC[C@@H](OC(C)=O)c1ccccc1OCCO | -0.214
O=C1c2ccccc2[C@](Cc2ccccc2I)(C(=O)NCC(F)(F)F)[C@H](c2ccc(CO)cc2)N1Cc1ccccc1C(F)(F)F | -0.366
Cc1ccc([C@@H]2CC=C(C(=O)O)[C@H](c3ccccc3)N2S(=O)(=O)c2ccc(C)cc2)cc1 | 0.755
C[C@@H]1NC(=O)CC=C[C@@H](C)[C@@H]2C=C[C@H](O)[C@@H](COC(=O)[C@H](C)NC(=O)CC=C[C@@H](C)[C@@H]3C=C[C@H](O)[C@@H](COC1=O)O3)O2 | -0.221
C#C[C@H](O[Si](C#Cc1ccccc1)(C(C)C)C(C)C)c1ccccc1 | -0.279
NC(=O)NCC#Cc1ccc2c(c1)[C@]1(C(=O)N2)[C@H](c2ccccc2OCCO)N2[C@H](c3ccccc3)[C@H](c3ccccc3)OC(=O)[C@H]2[C@@H]1C(=O)N1CCN(c2ncccn2)CC1 | 0.276
O=C(NCc1ccccc1)c1ccc(Br)cc1[N+](=O)[O-] | 0.109
O=C/C=C/c1ccccc1Cl | -0.0336
C=CCC1=C[C@H]2[C@H]([C@@H]3C=C[C@]2(CC=C)C(=O)[C@]32CO2)[C@@]2(CO2)C1=O | 0.233
Cc1ccc(N2C(=O)c3ccccc3[C@](C)(C(=O)NCC(C)C)[C@@H]2c2ccc(CO)cc2)nc1 | 0.456
C[C@@H]1CC[C@H]2C(=O)N3[C@@H](CC[C@@H](C)[C@@H]3c3cccc(N4CCOCC4)c3)C(=O)N2[C@H]1c1cccc(Br)c1 | 0.075
Cc1ccc(S[C@]2(C(=O)NC3CC3)CC(=O)N(Cc3cc(C(F)(F)F)cc(C(F)(F)F)c3)[C@@H]2c2ccc(CO)cc2)cc1 | -0.213
C[C@H]1COC(=O)[C@H](Cc2ccccc2)NC(=O)[C@@H](C)COC(=O)[C@H](Cc2ccccc2)NC1=O | -0.243
CCOC(=O)C[C@H]1[C@H](OC(=O)c2cc3ccccc3oc2=O)[C@@H](NC(=O)C2CCCCC2)c2cc(OCCCO)ccc2N1C(=O)c1ccc2ccccc2n1 | -0.124
COCCOC(=O)N1C(=O)[C@@]2(c3cc(C#CCCO)ccc31)[C@H](c1ccc(OCCO)cc1)N1[C@H](c3ccccc3)[C@H](c3ccccc3)OC(=O)[C@H]1[C@@H]2C(=O)NC[C@H](O)c1ccccc1 | -0.116
CC[C@@H]1C=C(C(=O)O)[C@H](c2ccccc2)N1S(=O)(=O)c1ccc([N+](=O)[O-])cc1 | 0.0634
CO[C@H]1O[C@H](CO)[C@@H](OC(=O)Nc2ccc(Oc3ccccc3)cc2)[C@H](OC(=O)Nc2ccccc2-c2ccccc2)[C@H]1OC(=O)Nc1ccccc1-c1ccccc1 | 0.218
COc1ccc([Si](C)(C)[C@@H]2[C@@H](CC(=O)N(CCO)Cc3ccccc3)O[C@]3(C(=O)N(Cc4cccc(N5CCC5=O)c4)c4ccccc43)[C@H]2C)cc1 | -0.17
NC(=O)NCC#Cc1ccc2c(c1)[C@]1(C(=O)N2)[C@H](C(N)=O)[C@H]2C(=O)O[C@H](c3ccccc3)[C@H](c3ccccc3)N2[C@@H]1c1ccccc1OCCO | 0.129
C=CCC(OC(C)=O)[C@@H]1[C@@H](N(Cc2ccc(-c3ccccc3)cc2)C(=O)c2ccc(C)cc2)c2cc(OCCCO)ccc2N1C(=O)c1ccc(-c2ccccc2)cc1 (stereo partly drawn) | 0.0026
COC(=O)[C@@]1(Cc2ccccc2)[C@H]2c3cc(C(=O)N4CCCC4)n(CCN4CNCC4=O)c3C[C@H]2CN1C(=O)c1ccccc1 | 0.154
C=C[C@H](OC)[C@@H](OC(=O)Nc1ccc(SC)cc1)c1ccc(OC)c(O)c1 | -0.0986
Cc1ccc(S[C@]2(C(=O)NCCCN(C)C)CC(=O)N(Cc3ccccc3)[C@@H]2c2ccc(CO)cc2I)cc1 | 0.373
Cc1ccc(N2C(=O)c3ccccc3[C@](C)(C(=O)O)[C@@H]2c2ccc(CO)cc2)nc1 | -0.15
C=CCN1C(=O)[C@]2(O[C@H](CCn3cc(CCO)nn3)[C@@H]([Si](C)(C)c3ccc(OC)cc3)[C@@H]2C)c2cc(NC(=O)c3ccc(OC)cc3)ccc21 | 0.205
[N-]=[N+]=NCc1ccccc1[C@H]1OC(c2ccc(OCCCO)cc2)=N[C@@]1(Cc1ccccc1N=[N+]=[N-])C(=O)NCc1ccccc1 | 0.232
CC(C)NC(=O)[C@@]1(Cc2ccccc2I)c2ccccc2C(=O)N(C2CCCCC2)[C@H]1c1ccc(CO)cc1 | 0.261
